- ASSAY METHOD TEXT: Plasma protein binding in human at 2 uM incubated for 6 hrs by equilibrium dialysis based LC-MS/MS analysis
- Assay type: ADME, cell-free
- CONDITION DESCRIPTION: read-out: PPB (converted)
Bridge positions count the residues as written; N and C are the ends. Square brackets hold non-standard residues; d marks the D form. Peptide text beside a SMILES is read from it. * marks the point of attachment. Decanoyl(3R-OH) = CCCCCCC[C@@H](O)CC(=O)*; dDab = NCC[C@@H](N)C(=O)O; Dab = NCC[C@H](N)C(=O)O
Hi there, I'd appreciate the recorded fraction unbound at 6 h, 2 µM for every entry that follows.
Keep it simple and answer with nothing but the number.

Any idea what fraction unbound at 6 h, 2 µM was measured for CCCCCCC[C@@H](O)CC(=O)N[C@H](CCN)C(=O)N[C@H]1CCNC(=O)[C@H](CC(C)C)NC(=O)[C@H](CCN)NC(=O)[C@H](CCN)NC(=O)[C@H](CC(C)C)NC(=O)[C@@H](CC(C)C)NC(=O)[C@H](CCN)NC1=O ?
0.0216

Note, next up: CCCCCCC[C@@H](O)CC(=O)N[C@H](CCN)C(=O)N[C@H]1CCNC(=O)[C@H](CC(C)C)NC(=O)[C@H](CCN)NC(=O)[C@H](CCN)NC(=O)[C@H](CC(C)C)NC(=O)[C@@H](Cc2ccccc2)NC(=O)[C@H](CCN)NC1=O ({Decanoyl(3R-OH)}-[dDab][Dab][Dab][dF]L[Dab][Dab]L; lactam 2-C)
0.0805

How about CCCCCCC[C@@H](O)CC(=O)N[C@H](CCN)C(=O)N[C@H]1CCNC(=O)[C@H]([C@@H](C)O)NC(=O)[C@H](CCN)NC(=O)[C@H](CCN)NC(=O)[C@H]([C@@H](C)O)NC(=O)[C@@H](Cc2ccccc2)NC(=O)[C@H](CCN)NC1=O ?
0.147
